The reported numbers originate from patent US10689384B2.

System: HepG2
measurement.notes: In vitro cytotoxicity study, inhibition of cell growth (MTT)
Format: cell-based
test.parameters: Homo sapiens, HepG2, liver, 72 hours
value.kind: EC50

compound	target.system	value.kind	value.observed
CNc1nc2ccccc2n2c(-c3ccc(O)c(O)c3)cnc12	HepG2	EC50	247 nM
CNc1nc2ccccc2n2c(-c3cccc(OC)c3)cnc12 [EAPB0503, reference compound]	HepG2	EC50	1360 nM
Nc1nc2ccccc2n2c(-c3ccc(O)c(O)c3)cnc12	HepG2	EC50	267 nM
